- Assay procedure: Apparent permeability from apical (pH 6.5) to […] of human Caco2 cells
- Type: ADME, cell-based
- Test conditions: Caco-2, pH 6.5
Assay metric: Papp A→B (×10⁻⁶ cm/s)

{"Compound": "CC(Nc1cccc(F)c1)c1cc(C(=O)N(C)C)cn2c(=O)cc(N3CCOCC3)nc12 (racemic)", "Papp A→B (×10⁻⁶ cm/s)": 39}
{"Compound": "CC(Nc1ccc(F)c(F)c1)c1cc(C(=O)N(C)C)cn2c(=O)cc(N3CCOCC3)nc12 (single isomer, unassigned; (-))", "Papp A→B (×10⁻⁶ cm/s)": 44}
{"Compound": "CC(Nc1cccc(Cl)c1F)c1cc(C(=O)NCCN(C)C)cn2c(=O)cc(N3CCOCC3)nc12 (single isomer, unassigned; (-))", "Papp A→B (×10⁻⁶ cm/s)": 0.9}
{"Compound": "CC(Nc1ccccc1)c1cc(C(=O)NCCN(C)C)cn2c(=O)cc(N3CCOCC3)nc12 (single isomer, unassigned; (-))", "Papp A→B (×10⁻⁶ cm/s)": 0.2}
{"Compound": "CC(Nc1ccc(F)cc1)c1cc(C(=O)N(C)C)cn2c(=O)cc(N3CCOCC3)nc12 (single isomer, unassigned; (-))", "Papp A→B (×10⁻⁶ cm/s)": 34}
{"Compound": "CC(Nc1cccc(F)c1)c1cc(C(=O)NCCN(C)C)cn2c(=O)cc(N3CCOCC3)nc12 (racemic)", "Papp A→B (×10⁻⁶ cm/s)": 0.3}

(A) CC(Nc1ccccc1F)c1cc(C(=O)NCCN(C)C)cn2c(=O)cc(N3CCOCC3)nc12 (racemic)
(B) C[C@@H](Nc1cc(F)cc(F)c1)c1cc(C(=O)N(C)C)cn2c(=O)cc(N3CCOCC3)nc12
Hi, I'm comparing two records. Which one has the lower Papp A→B, A or B ? Please reply using the label of the selected record.
A
(A: 0.8 ×10⁻⁶ cm/s, B: 50 ×10⁻⁶ cm/s)

(P) C[C@@H](Nc1cc(F)cc(F)c1)c1cc(C(=O)N2CCN(C)CC2)cn2c(=O)cc(N3CCOCC3)nc12
(Q) CC(Nc1ccc(F)cc1)c1cc(C(=O)NCCN(C)C)cn2c(=O)cc(N3CCOCC3)nc12 (racemic)
Please tell me which of the two, P or Q , has the higher reported Papp A→B value. Please reply using the label of the selected record.
P
(P: 9 ×10⁻⁶ cm/s, Q: 0.2 ×10⁻⁶ cm/s)
